- measured target: T1, Nrd1 307-491 N349A (Saccharomyces cerevisiae, UniProt P53617 307-491, N349A)
- T1 sequence: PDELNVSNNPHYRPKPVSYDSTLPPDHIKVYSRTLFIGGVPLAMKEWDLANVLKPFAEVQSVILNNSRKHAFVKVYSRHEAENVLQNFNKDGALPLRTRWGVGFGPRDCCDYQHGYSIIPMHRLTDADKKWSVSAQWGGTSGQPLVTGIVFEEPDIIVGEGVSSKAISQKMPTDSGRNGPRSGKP
- method summary: fluorescence anisotropy; FA: 10 nM RNA, 50 mM sodium phosphate pH 8, 150 mM NaCl, 10 mM beta-mercaptoethanol, 20 C (protein stock in 300 mM NaCl); NMR: same buffer with 300 mM NaCl, 20
- protocol conditions: protein: recombinant; tags: C-terminal His6; label: 5' fluorescein or TAMRA (FA); unlabeled (NMR)
attribute measured: pKd
Answer as the number alone; pKd is minus log10 of concentration in mol/L.

Query: # lookup: pKd of GUAA (ssRNA)
Reply: 4.99
